All figures here come from PubChem BioAssay (NCI).

Test system: DU-145 prostate
Assay info: NCI-60 one-dose screen, 48 h
Test context: 10 µM unless noted
About 83,000 compounds went through this panel and 20% of them were active in at least one assay; those are over-represented in the sample as a whole. Active and inactive are the calls of the source. Rule for the calls: active = growth percent below 10; inactive = the rest.
Parameter call: string, one of active, inactive

Solved entries:
COc1c(B(O)O)cc(F)cc1-c1nc2c(F)cc3[nH]ncc3c2c2c1CCCC2 inactive
COc1ccc(-c2nc3ccc(-c4nnc(SCc5ccccc5)o4)cc3[nH]2)cc1OC inactive
CCCCCCCCc1ccc(C(=O)Nc2ccc(C)c(OP(=O)(O)O)c2)cc1 inactive

Inquiry: Would you mind telling me which call this test gave CN(C)CCCNC(=S)Nc1ccc(/C=C/c2ccc(Cl)cc2)cc1 ?
Reply text: active

Inquiry: Please do the same for N#C/C(=C/c1ccc([N+](=O)[O-])cc1)c1nnc(NC(=O)c2ccc(-n3c(=O)[nH]c4ccccc4c3=O)cc2)s1 as well.
Reply text: inactive

* * *

System: EKVX NSCLC
Assay info: NCI-60 one-dose screen, 48 h (100 = growth as untreated, 0 = no growth, -100 = all killed)
Test context: 10 µM unless noted
About 83,000 compounds went through this panel and 20% of them were active in at least one assay; those are over-represented in the sample as a whole.
Consider the following compounds; for each one, report its growth.
Answers are plain numbers, in %.

Solved cases (2 shown):
Compound	Output unit	growth
Cc1ccc(C(=O)C[n+]2cccc3c4ccccc4ccc32)cc1	%	28.9
COc1ccc(NC(=O)Cn2c(/C=C/c3cccc(OC)c3)nc3ccccc3c2=O)cc1	%	79.6

Each compound below has a reported value. Please supply its growth.
1. COc1ccc(N=Nc2c(N)nn3c(-c4ccc(OC)c(OC)c4)ccnc23)cc1
2. Cc1ccc(S(=O)(=O)Nc2ccc(-c3ccc4c(c3)NC(=O)/C4=C\c3ccc[nH]3)cc2)cc1
3. Cc1nc2sccn2c1-c1nnc(SCc2ccccc2)o1
4. C=CCn1c(O)c(N=Nc2nc(-c3cc4ccccc4oc3=O)cs2)c2ccccc21
5. Nc1ccc(-c2ccc3ncnc(N4CCc5cc(F)c(Cl)cc54)c3c2)cn1

Reply text:
[103, 35.7, 87.5, 55.7, -29.2]

# return growth for each item in the list
1. COc1ccc2[nH]c(O)c(N=Nc3nc(-c4ccc(Br)cc4)cs3)c2c1
2. Cc1ccc(C(=O)Nc2cccc(C(=O)NC(=S)Nc3ccc(S(N)(=O)=O)cc3)c2)cc1
3. NNc1ncnc2sc3c(c12)CCN(Cc1ccccc1)C3
4. O=c1[nH]c2ccccc2cc1CSc1ccccc1Nc1nccc(-c2ccc3c(c2)OCO3)n1
5. COc1ccc2c(c1)N=c1c-2cc2c(O)[nH]c(=S)n2c1=O
6. NC(=Nc1ccc(OCCCCCCCCn2cnnn2)cc1)c1ccccc1

Reply text:
6.08
88.2
36
86.6
48.7
40

Quick request: growth for each listed item, please.
1. Clc1ccc(-c2nc3ccc(-c4nnc(SCc5ccccc5)o4)cc3[nH]2)cc1
2. COC(=O)c1cc(C(=O)C(F)(F)F)n2c3ccccc3c3ccccc3c12
3. c1n[nH]cc1-c1nc2ccc3[nH]ncc3c2c2c1CC1(CCOCC1)CC2

Reply text:
-24.4
78.3
55.3

* * *

System: NCI/ADR-RES ovarian
Assay info: NCI-60 one-dose screen, 48 h
Test context: 10 µM unless noted
This is part of a sample that, as a whole, favours compounds with a hit. Of some 83,000 tested, about 20% had one in any assay. Calls of active or inactive are those of the source. Rule for the calls: active = growth percent below 10; inactive = the rest.
Hello, when you answer, please use one of the following outcomes: y for active, n for inactive

As a guide, the following entries are already answered.
CCCCCCCCc1cccc(CC(=O)Nc2ccc(C)cc2C(=O)O)c1 n
Cn1cc(-c2cc(N)n3nc(-c4c[nH]c5ccc(F)cc45)cc3n2)c2cc(Br)cnc21 n
O=C(c1cc2cc(OCCCN3CCC3)ccc2[nH]1)N1C[C@@H](CCl)c2c1cc(OCc1ccccc1)c1ccccc21 y
COc1ccc(N=Nc2c(N)nn3c(-c4cc5cc(Br)ccc5oc4=O)ccnc23)cc1 n
C[C@H](NC(=O)c1ccc2c(-c3ccc(C(F)(F)F)cc3)cccc2c1)c1ccccn1 n
O=C(N/N=C/c1c[nH]c2ccccc12)Nc1ccc(F)c(Cl)c1 y

Inquiry: Short answer needed: outcome of this test for COc1cc(NC(=O)C(C)C)ccc1C(=O)NC(=S)Nc1ccc(S(N)(=O)=O)cc1 ?
Reply text: n

Inquiry: Repeat with O=C(NNC(=O)c1ccc(OCc2nc3ccc(Cl)cc3[nH]2)cc1)Nc1ccc(Cl)c(Cl)c1
Reply text: n

Inquiry: // repeat for COc1cc(CNC(=O)C[C@H](C)CCC=C(C)C)ccc1OCc1cn(-c2ccc(Br)cc2)nn1 and report
Reply text: n

* * *

System: NCI-H322M lung
Assay info: NCI-60 one-dose screen, 48 h (100 = growth as untreated, 0 = no growth, -100 = all killed)
Test context: 10 µM unless noted
About 83,000 compounds went through this panel and 20% of them were active in at least one assay; those are over-represented in the sample as a whole.
Would you kindly list growth for each of these compounds?
Numbers only, in %.

Some entries whose results are on file:
COc1ccc(-c2cc(-c3cc(OC)c(OC)c(OC)c3)[nH]c(=O)c2C#N)cc1 5.73
Cc1ccc2nc(COc3ccc(C(=O)NNC(=O)Nc4ccc(Cl)c(C(F)(F)F)c4)cc3)[nH]c2c1 22.3

Please state growth for every compound in the list that follows.
1. CC[C@@]12CC(C(=O)OC)=C3Nc4cc5c(cc4[C@@]34CCN(C[C@H]3O[C@H]31)[C@@H]24)[C@@H]1[C@H](O5)[C@@H](O)[C@@]2(CC)CC(C(=O)OC)=C3Nc4cc(O)ccc4[C@@]34CCN1[C@@H]24
2. Cc1ccc(C(=O)Nc2cc(-n3ccnc3)cc(C(F)(F)F)c2)cc1-n1cc(-c2cnc3cccnn23)nn1

Reply text:
-43
113

* * *

System: SR leukemia
Assay info: NCI-60 one-dose screen, 48 h
Test context: 10 µM unless noted
The panel holds about 83,000 compounds, 20% with a hit somewhere; the sample as a whole holds those more often. Activity calls are given as the source filed them. How the source made its calls: active means growth percent below 10; inactive means the rest.
Output constraint: value belongs to active, inactive

Molecule	Class name
COc1cc(C2CC(c3ccc(S(=O)(=O)NCCNc4nc(N(C)C)nc(N5CCOCC5)n4)cc3)=Nc3c(N)nc(N)nc3N2)cc(OC)c1OC (centres undefined)	inactive

Inquiry: What outcome does the record of this test show for Cc1ccc(C(=O)Nc2cc(-c3ccncc3)cc(C(F)(F)F)c2)cc1C#Cc1cnc2cccnn12 ?
Reply text: active

Inquiry: Try this molecule next: O=C(c1ccc(Cl)cc1)C1[C@H](c2ccccc2Cl)[C@@H](c2ccccc2)NC12C(=O)Nc1ccccc12 (some centres undefined)
Reply text: active

Inquiry: Another molecule: COc1cc(NC(=O)C(C)C)ccc1C(=O)NC(=S)Nc1ccc(S(N)(=O)=O)cc1
Reply text: inactive

* * *

System: 786-0 renal
Assay info: NCI-60 one-dose screen, 48 h
Test context: 10 µM unless noted
Compounds without any hit were thinned out: in the full panel of roughly 83,000, 20% have a hit. Active and inactive are the calls of the source. The calls were made as follows: active = growth percent below 10; inactive = the rest.
Hi! Could you answer with just one of these? yes (1) for active, no (0) for inactive

Inquiry: Please let me know the test result on file for C[C@H]1[C@@H](CC(=O)N[C@@H](Cc2coc3ccccc23)B(O)O)O[C@@H]2OC3(C)CC[C@H]4[C@H](C)CC[C@@H]1[C@@]24O3 .
Reply text: no (0)

Inquiry: Would you kindly repeat that for O=C(N/N=C/c1c[nH]c2ccccc12)Nc1ccccc1Cl ?
Reply text: yes (1)

Inquiry: Next compound: CN(C)c1nc(NCCNS(=O)(=O)c2ccc(C(=O)/C=C/c3ccc(C(F)(F)F)cc3)cc2)nc(N2CCOCC2)n1
Reply text: yes (1)

Inquiry: Another: O=C1Nc2ccccc2/C1=C\c1ccc(OCC(=O)c2ccc(Br)cc2)cc1
Reply text: no (0)

Inquiry: Now the same for CC(C)(C)C(=O)c1c2c(c3ccc4c5ccccc5ccc4n13)C(=O)c1ccccc1C2=O
Reply text: no (0)

Inquiry: # repeat for O=C(Cn1c(-c2ccccc2)nc2ccccc21)N=Nc1c(O)[nH]c2ccc(Br)cc12
Reply text: yes (1)

Inquiry: Try COc1cc(/C=C/C(=O)c2cnn(-c3cc(=O)[nH]c4ccc(Cl)cc34)c2C)cc(OC)c1OC next.
Reply text: yes (1)

Inquiry: And then Cc1nn(-c2ccccc2)c2nc(C)n(C(=O)N/N=C/c3cccc([N+](=O)[O-])c3)c(=O)c12 , what is it?
Reply text: no (0)

* * *

Test system: NCI-H322M lung
Assay info: NCI-60 one-dose screen, 48 h (100 = growth as untreated, 0 = no growth, -100 = all killed)
Test context: 10 µM unless noted
This is part of a sample that, as a whole, favours compounds with a hit. Of some 83,000 tested, about 20% had one in any assay.
Measured property: growth (%)
Give bare numbers, in %.

Answered examples (4):
Compound	Measured property	Output unit	Value reported
COc1ccc([C@H]2C(C(=O)c3ccc(Cl)cc3)C3(N[C@@H]2c2ccccc2)C(=O)Nc2ccccc23)cc1 (stereo not given in full)	growth	%	54.5
O=C(Cn1c(-c2ccccc2)nc2ccccc21)N=Nc1c(O)[nH]c2ccc(Br)cc12	growth	%	-6.14
Cc1cccc(C)c1Nc1nnc(-c2c[nH]c3ccccc23)o1	growth	%	98
COc1ccc2c(c1)C(Sc1ccc(Cl)cc1)c1c(nc(N)c(C#N)c1N)O2 (stereo not given)	growth	%	86.4

Now for another entry.
Inquiry: Param readout = growth; param system = NCI-H322M lung; param query = O=c1c(-c2nc(-c3ccccc3)c(-c3ccccc3)[nH]2)coc2ccc(F)cc12 ; response: value
Reply text: 73.1
